Tested on: A375
Assay: Cancer cell proliferation inhibition, CCK-8, 72 hours
Format: cell-based
Conditions: Homo sapiens, A-375, 72 h
// reported IC50 for each item listed

{"smiles.str": "COCCCn1cc(Nc2cccn3c(C#Cc4cc(C(=O)Nc5ccc(CN6CCN(C)[C@H](C)C6)c(C(F)(F)F)c5)ccc4C)cnc23)cn1", "unit.symbol": "µM", "comparator": "=", "IC50": 0.163}
{"smiles.str": "Cc1ccc(NC(=O)Nc2ccc(CN3CCN(C)CC3)c(C(F)(F)F)c2)cc1C#Cc1cnc2c(Nc3cnn(C(C)C)c3)cccn12", "unit.symbol": "µM", "comparator": "=", "IC50": 1.82}
{"smiles.str": "COCCn1cc(Nc2cccn3c(C#Cc4cc(C(=O)Nc5cc(C(C)(C)C(F)(F)F)on5)ccc4C)cnc23)cn1", "unit.symbol": "µM", "comparator": "=", "IC50": 1.39}
{"smiles.str": "Cc1ccc(Nc2cccn3c(C#Cc4cc(C(=O)Nc5ccc(CN6CCN(C)CC6)c(C(F)(F)F)c5)ccc4C)cnc23)cc1", "unit.symbol": "µM", "comparator": "=", "IC50": 3.52}
{"smiles.str": "Cc1ccc(C(=O)Nc2ccc(Cl)c(C(F)(F)F)c2)cc1C#Cc1cnc2c(Nc3cnn(C4CCNCC4)c3)cccn12", "unit.symbol": "µM", "comparator": "=", "IC50": 1.33}
{"smiles.str": "CCN1CCN(Cc2ccc(NC(=O)c3ccc(C)c(C#Cc4cnc5c(Nc6ccc(C)cn6)cccn45)c3)cc2C(F)(F)F)CC1", "unit.symbol": "µM", "comparator": "=", "IC50": 1.85}
{"smiles.str": "CCN1CCN(Cc2ccc(NC(=O)c3ccc(C)c(C#Cc4cnc5c(Nc6ccc(C)cc6)cccn45)c3)cc2C(F)(F)F)CC1", "unit.symbol": "µM", "comparator": "=", "IC50": 3.71}
{"smiles.str": "Cc1ccc(C(=O)Nc2cccc(C(F)(F)F)c2)cc1C#Cc1cnc2c(Nc3cnn(CCCN(C)C)c3)cccn12", "unit.symbol": "µM", "comparator": "=", "IC50": 4.46}
{"smiles.str": "Cc1ccc(C(=O)Nc2ccc(CN3CC[C@@H](N(C)C)C3)c(C(F)(F)F)c2)cc1C#Cc1cnc2c(Nc3cnn(C)c3)cccn12", "unit.symbol": "µM", "comparator": "=", "IC50": 0.224}
{"smiles.str": "Cc1ccc(C(=O)Nc2cccc(F)c2)cc1C#Cc1cnc2c(Nc3cnn(C)c3)cccn12", "unit.symbol": "µM", "comparator": ">", "IC50": 10}
{"smiles.str": "Cc1ccc(NC(=O)Nc2cc(C(C)(C)C(F)(F)F)on2)cc1C#Cc1cnc2c(Nc3cnn(C(C)C)c3)cccn12", "unit.symbol": "µM", "comparator": ">", "IC50": 10}
{"smiles.str": "Cc1ccc(C(=O)Nc2ccc(CN3CCN(C)CC3)c(C(F)(F)F)c2)cc1C#Cc1cnc2c(Nc3ccn(C)n3)cccn12", "unit.symbol": "µM", "comparator": "=", "IC50": 0.312}
{"smiles.str": "Cc1ccc(C(=O)Nc2ccc(Cl)c(C(F)(F)F)c2)cc1C#Cc1cnc2c(Nc3cnn(C)c3)cccn12", "unit.symbol": "µM", "comparator": "=", "IC50": 3.4}
{"smiles.str": "Cc1ccc(C(=O)Nc2ccc(CN3CCN(C)[C@H](C)C3)c(C(F)(F)F)c2)cc1C#Cc1cnc2c(Nc3cnn(C)c3)cccn12", "unit.symbol": "µM", "comparator": "=", "IC50": 0.152}
{"smiles.str": "Cc1ccc(C(=O)Nc2ccc(CN3CCN(C)CC3)c(C(F)(F)F)c2)cc1C#Cc1cnc2c(Nc3cnn(C)c3)cccn12", "unit.symbol": "µM", "comparator": "=", "IC50": 0.026}
{"smiles.str": "COCCCn1cc(Nc2cccn3c(C#Cc4cc(C(=O)Nc5ccc(CN6CCN(C)[C@@H](C)C6)c(C(F)(F)F)c5)ccc4C)cnc23)cn1", "unit.symbol": "µM", "comparator": "=", "IC50": 0.25}
{"smiles.str": "Cc1ccc(C(=O)Nc2ccc3cccnc3c2)cc1C#Cc1cnc2c(Nc3cnn(C)c3)cccn12", "unit.symbol": "µM", "comparator": ">", "IC50": 10}
{"smiles.str": "Cc1ccc(C(=O)Nc2ccc(Cl)cc2)cc1C#Cc1cnc2c(Nc3cnn(C)c3)cccn12", "unit.symbol": "µM", "comparator": "=", "IC50": 6.21}
{"smiles.str": "Cc1ccc(NC(=O)c2ccc(CN3CCN(C)CC3)c(C(F)(F)F)c2)cc1C#Cc1cnc2c(Nc3cnn(C)c3)cccn12", "unit.symbol": "µM", "comparator": "=", "IC50": 0.132}
{"smiles.str": "COc1ccc(NC(=O)c2ccc(C)c(C#Cc3cnc4c(Nc5cnn(C)c5)cccn34)c2)cc1F", "unit.symbol": "µM", "comparator": ">", "IC50": 10}
{"smiles.str": "Cc1ccc(C(=O)Nc2ccc(CN3CCN(C)CC3)c(C(F)(F)F)c2)cc1C#Cc1cnc2c(Nc3cnn(C(C)C)c3)cccn12", "unit.symbol": "µM", "comparator": "=", "IC50": 0.39}
{"smiles.str": "CCN1CCN(Cc2ccc(NC(=O)c3ccc(C)c(C#Cc4cnc5c(Nc6cnn(C)c6)cccn45)c3)cc2C(F)(F)F)CC1", "unit.symbol": "µM", "comparator": "=", "IC50": 0.052}
{"smiles.str": "CCN1CCN(Cc2ccc(NC(=O)c3ccc(C)c(C#Cc4cnc5c(Nc6cnn(CCOC)c6)cccn45)c3)cc2C(F)(F)F)CC1", "unit.symbol": "µM", "comparator": "=", "IC50": 60.6}
{"smiles.str": "CN1CCN(Cc2ccc(NC(=O)c3cccc(C#Cc4cnc5c(Nc6cnn(C)c6)cccn45)c3)cc2C(F)(F)F)CC1", "unit.symbol": "µM", "comparator": "=", "IC50": 0.229}
{"smiles.str": "Cc1ccc(C(=O)Nc2cccc(C(F)(F)F)c2)cc1C#Cc1cnc2c(Nc3cnn(C4CCNCC4)c3)cccn12", "unit.symbol": "µM", "comparator": "=", "IC50": 1.25}
{"smiles.str": "Cc1ccc(NC(=O)Nc2cc(C(C)(C)C)on2)cc1C#Cc1cnc2c(Nc3cnn(C(C)C)c3)cccn12", "unit.symbol": "µM", "comparator": "=", "IC50": 5.04}
{"smiles.str": "CCN1CCN(Cc2ccc(NC(=O)c3ccc(C)c(C#Cc4cnc5c(Nc6cnn(CCCN(C)C)c6)cccn45)c3)cc2C(F)(F)F)CC1", "unit.symbol": "µM", "comparator": "=", "IC50": 0.452}
